B1: Azoarcus group I ribozyme (parent)
chain: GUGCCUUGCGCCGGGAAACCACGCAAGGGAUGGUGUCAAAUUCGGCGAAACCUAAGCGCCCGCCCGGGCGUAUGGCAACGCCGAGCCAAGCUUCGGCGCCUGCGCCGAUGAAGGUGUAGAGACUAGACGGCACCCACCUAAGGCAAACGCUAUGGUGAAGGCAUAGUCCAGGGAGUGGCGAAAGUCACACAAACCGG

Variants of: B1
PROCEDURE_SUMMARY: reverse-splicing fitness (ratio to wild type); higher = more active; in vitro selection; Mg2+ level not given
RESULT_TYPE: reverse-splicing fitness
One number for each entry.

Required: reverse-splicing fitness, one value per variant below.
1. C82U A111C A145C C150A C169A
2. A111G A120C A145U U176C
3. C82U A111U A120G A145C C150A C169A U176C
4. A111C A145G U176A
5. C82G A111C A145C C150U C169U U176A

-- reply
0.00786
0.45
0.0062
0.432
0.013

Required: reverse-splicing fitness, one value per variant below.
1. C82A A111U A120G A145U C150U C169A U176A
2. A111C A145C C169G U176G
3. C82A A111U A120U A145G C150G
4. C82A A111U A120C A145U C150A C169G
5. A120C C150A C169A
6. A120C C150A C169A U176G

-- reply
1. 0.0139
2. 0.00691
3. 0.00842
4. 0.00953
5. 0.0141
6. 0.00451

Required: reverse-splicing fitness, one value per variant below.
1. A111C C150A C169A U176G
2. A145U C150U

-- reply
1. 0.00777
2. 0.943
